Reported ΔTm is given for each of the following molecules.
System: Nucleic Acid
Experiment: Compound was evaluated for the increase in melting temperature (delta Tm) for calf Thymus DNA on interaction with Ligand at DNAp to ligand ratio 10:1
Type: functional
Details: Bos taurus
measured_parameter: ΔTm

* CCN(CC)CC(=O)Nc1ccc2c(c1)C(=O)c1ccc(NC(=O)CN(CC)CC)cc1C2=O | 13.5
* O=C(CN1CCOCC1)Nc1ccc2c(c1)C(=O)c1ccc(NC(=O)CN3CCOCC3)cc1C2=O | 0.5
* O=C(CCN1CCCCC1CO)Nc1ccc2c(c1)C(=O)c1ccc(NC(=O)CCN3CCCCC3CO)cc1C2=O (stereo not drawn) | 14.4
* O=C(CCN1CCN(CCO)CC1)Nc1ccc2c(c1)C(=O)c1ccc(NC(=O)CCN3CCN(CCO)CC3)cc1C2=O | 7.2
* O=C(CN1CCCCC1)Nc1ccc2c(c1)C(=O)c1ccc(NC(=O)CN3CCCCC3)cc1C2=O | 14.3

====

Experiment: Estimated pKa value of the compound
Assay type: physicochemical
Threshold rule: pKa greater than or equal to 10 is True; below that, False.

* O=C(CCN(CCO)CCO)Nc1ccc2c(c1)C(=O)c1ccc(NC(=O)CCN(CCO)CCO)cc1C2=O | False
* O=C1c2c(O)ccc(O)c2C(=O)c2c(NCCNCCO)ccc(NCCNCCO)c21 | False
* CN1CCN(CC(=O)Nc2ccc3c(c2)C(=O)c2ccc(NC(=O)CN4CCN(C)CC4)cc2C3=O)CC1 | False
* O=C(CCN1CCCCC1)Nc1ccc2c(c1)C(=O)c1ccc(NC(=O)CCN3CCCCC3)cc1C2=O | True
* O=C(CCN1CCOCC1)Nc1ccc2c(c1)C(=O)c1ccc(NC(=O)CCN3CCOCC3)cc1C2=O | False
* CN1CCN(CCC(=O)Nc2ccc3c(c2)C(=O)c2ccc(NC(=O)CCN4CCN(C)CC4)cc2C3=O)CC1 | False
* O=C(CN1CCOCC1)Nc1ccc2c(c1)C(=O)c1ccc(NC(=O)CN3CCOCC3)cc1C2=O | False
* O=C(CCN1CCN(CCO)CC1)Nc1ccc2c(c1)C(=O)c1ccc(NC(=O)CCN3CCN(CCO)CC3)cc1C2=O | False
* CCN(CC)CCC(=O)Nc1ccc2c(c1)C(=O)c1ccc(NC(=O)CCN(CC)CC)cc1C2=O | True

====

System: Nucleic Acid
Test: Increase in Melting temperature (delta Tm) for Calf thymus DNA on interaction against ligand (mole ratio of 10:1)
Format: functional
Settings: Bos taurus
We begin with a simple list: items and their reported ΔTm.
measured_parameter: ΔTm

* O=C(CN1CCCCC1)Nc1ccc2c(c1)C(=O)c1ccc(NC(=O)CN3CCCCC3)cc1C2=O | 14.3
* O=C1c2c(O)ccc(O)c2C(=O)c2c(NCCNCCO)ccc(NCCNCCO)c21 | > 15
* CCN(CC)CC(=O)Nc1ccc2c(c1)C(=O)c1ccc(NC(=O)CN(CC)CC)cc1C2=O | 13.5
* O=C(CCN(CCO)CCO)Nc1ccc2c(c1)C(=O)c1ccc(NC(=O)CCN(CCO)CCO)cc1C2=O | 10.9
* O=C(CCN1CCCCC1CCO)Nc1ccc2c(c1)C(=O)c1ccc(NC(=O)CCN3CCCCC3CCO)cc1C2=O (configuration not stated) | > 15.3
* CCN(CC)CCC(=O)Nc1ccc2c(c1)C(=O)c1ccc(NC(=O)CCN(CC)CC)cc1C2=O | > 15.5
* O=C(CCN1CCCCC1)Nc1ccc2c(c1)C(=O)c1ccc(NC(=O)CCN3CCCCC3)cc1C2=O | > 15.3

====

System: Nucleic Acid
Test: Compound was evaluated for the increase in melting temperature (delta Tm) for calf Thymus DNA on interaction with Ligand at DNAp to ligand ratio 20:1
Format: functional
Conditions: Bos taurus
Listed next: entries and their corresponding ΔTm.
measured_parameter: ΔTm

- CN1CCN(CC(=O)Nc2ccc3c(c2)C(=O)c2ccc(NC(=O)CN4CCN(C)CC4)cc2C3=O)CC1: 8.2
- O=C(CN1CCOCC1)Nc1ccc2c(c1)C(=O)c1ccc(NC(=O)CN3CCOCC3)cc1C2=O: 0.5
- O=C(CCN1CCC(CCO)CC1)Nc1ccc2c(c1)C(=O)c1ccc(NC(=O)CCN3CCC(CCO)CC3)cc1C2=O: 8.3
- CN1CCN(CCC(=O)Nc2ccc3c(c2)C(=O)c2ccc(NC(=O)CCN4CCN(C)CC4)cc2C3=O)CC1: 4.4
- O=C(CCN1CCN(CCO)CC1)Nc1ccc2c(c1)C(=O)c1ccc(NC(=O)CCN3CCN(CCO)CC3)cc1C2=O: 4.6
- O=C(CCN1CCCCC1)Nc1ccc2c(c1)C(=O)c1ccc(NC(=O)CCN3CCCCC3)cc1C2=O: 7.3

====

// values below are reported ΔTm
System: Nucleic Acid
Assay: Compound was evaluated for the increase in melting temperature (delta Tm) for calf Thymus DNA on interaction with Ligand at DNAp to ligand ratio 10:1
Assay type: functional
Details: Bos taurus
measured_parameter: ΔTm

• O=C(CCN1CCOCC1)Nc1ccc2c(c1)C(=O)c1ccc(NC(=O)CCN3CCOCC3)cc1C2=O = 4.9
• CN1CCN(CCC(=O)Nc2ccc3c(c2)C(=O)c2ccc(NC(=O)CCN4CCN(C)CC4)cc2C3=O)CC1 = 9.2
• CN1CCN(CC(=O)Nc2ccc3c(c2)C(=O)c2ccc(NC(=O)CN4CCN(C)CC4)cc2C3=O)CC1 = 13.6
• O=C(CCN(CCO)CCO)Nc1ccc2c(c1)C(=O)c1ccc(NC(=O)CCN(CCO)CCO)cc1C2=O = 10.9

====

Test system: Nucleic Acid
Assay: Compound was evaluated for the increase in melting temperature (delta Tm) for calf Thymus DNA on interaction with Ligand at DNAp to ligand ratio 10:1
Format: functional
Settings: Bos taurus
measured_parameter: ΔTm

• O=C(CCN1CCCCC1CCO)Nc1ccc2c(c1)C(=O)c1ccc(NC(=O)CCN3CCCCC3CCO)cc1C2=O (stereo not drawn) = > 15.3
• O=C(CCN1CCC(CCO)CC1)Nc1ccc2c(c1)C(=O)c1ccc(NC(=O)CCN3CCC(CCO)CC3)cc1C2=O = > 15
• O=C1c2c(O)ccc(O)c2C(=O)c2c(NCCNCCO)ccc(NCCNCCO)c21 = > 15
